Test system: Staphylococcus aureus
Protocol description: Antibacterial activity against Staphylococcus aureus Rosenbach 209 after 48 hrs by agar well diffusion method; further: test concentration or dose not given here
Assay type: functional

| Cpd smiles | diameter of the inhibition zone (DIZ) |
| --- | --- |
| COc1cc(C(=O)/C=C/C=C/c2ccccc2)cc(OC)c1OC | 19 mm |
| O=C(/C=C/c1ccc(O)c(O)c1)c1ccc(Cl)cc1 | 19 mm |
| O=C(/C=C/c1ccc([N+](=O)[O-])cc1)c1ccccc1 | 17 mm |

----------
Test system: Staphylococcus aureus
Protocol description: Antibacterial activity against Staphylococcus aureus Rosenbach 209 after 48 hrs by agar well diffusion method; further: test concentration or dose not given here
Assay type: functional
Form field: diameter of the inhibition zone (DIZ) (one value per entry).

| Compound | System tested | Unit of measure | diameter of the inhibition zone (DIZ) |
| --- | --- | --- | --- |
| COc1ccc(/C=C/C(=O)c2cc(OC)c(OC)c(OC)c2)cc1O | Staphylococcus aureus | mm | 0 |
| COc1cc(C(=O)/C=C/c2ccc(N(C)C)cc2)cc(OC)c1OC | Staphylococcus aureus | mm | 0 |
| O=C(/C=C/C=C/c1ccccc1)c1ccc(Cl)cc1 | Staphylococcus aureus | mm | 0 |
| O=C(/C=C/c1ccccc1O)c1ccc(Cl)cc1 | Staphylococcus aureus | mm | 20 |
| O=C(/C=C/c1ccccc1O)c1ccccc1 | Staphylococcus aureus | mm | 22 |
| COc1cccc(/C=C/C(=O)c2ccc(Cl)cc2)c1O | Staphylococcus aureus | mm | 0 |
| CN(C)c1ccc(/C=C/C(=O)c2ccc(Cl)cc2)cc1 | Staphylococcus aureus | mm | 0 |
| O=C(/C=C/c1cc([N+](=O)[O-])ccc1O)c1ccc(Cl)cc1 | Staphylococcus aureus | mm | 0 |
| N#Cc1ccc(/C=C/C(=O)c2ccccc2)cc1 | Staphylococcus aureus | mm | 16 |
| O=C(/C=C/c1ccc(Cl)cc1)/C=C/c1ccc(Cl)cc1 | Staphylococcus aureus | mm | 0 |
| O=C(/C=C/c1cccc(O)c1)c1ccccc1 [3-HYDROXY CHALCONE] | Staphylococcus aureus | mm | 20 |
| COc1cc(C(=O)/C=C/c2ccccc2)cc(OC)c1OC | Staphylococcus aureus | mm | 0 |
| Cc1ccc(/C=C/C(=O)c2ccccc2)cc1 | Staphylococcus aureus | mm | 0 |
| COc1ccc(/C=C/C(=O)c2cc(OC)c(OC)c(OC)c2)cc1 | Staphylococcus aureus | mm | 0 |
| CC(=O)Nc1ccc(/C=C/C(=O)c2ccccc2)cc1 | Staphylococcus aureus | mm | 0 |
| COc1ccc(/C=C/C(=O)c2ccc(Cl)cc2)cc1O | Staphylococcus aureus | mm | 0 |
| O=C(/C=C/c1ccc(O)c(O)c1)c1ccccc1 | Staphylococcus aureus | mm | 21 |
| COc1cc(/C=C/C(=O)/C=C/c2cc(OC)c(OC)c(OC)c2)cc(OC)c1OC | Staphylococcus aureus | mm | 0 |
| COc1cc(C(=O)/C=C/c2ccc(Cl)cc2)cc(OC)c1OC | Staphylococcus aureus | mm | 0 |
| COc1cc(/C=C/C(=O)c2ccccc2)ccc1O | Staphylococcus aureus | mm | 0 |
| CN(C)c1ccc(/C=C/C(=O)c2ccccc2)cc1 | Staphylococcus aureus | mm | 0 |
| O=C(/C=C/C=C/c1ccccc1)c1ccccc1 | Staphylococcus aureus | mm | 0 |
| CC(=O)Nc1ccc(/C=C/C(=O)c2ccc(Cl)cc2)cc1 | Staphylococcus aureus | mm | 0 |
| COc1ccc(/C=C/C(=O)c2ccccc2)cc1 [4-METHOXY CHALCONE] | Staphylococcus aureus | mm | 0 |
| COc1cccc(/C=C/C(=O)c2ccccc2)c1O | Staphylococcus aureus | mm | 19 |
| O=C(/C=C/c1ccc(Cl)cc1)c1ccc(Cl)cc1 [4',4-DICHLOROCHALCONE] | Staphylococcus aureus | mm | 0 |
| N#Cc1ccc(/C=C/C(=O)c2ccc(Cl)cc2)cc1 | Staphylococcus aureus | mm | 21 |
| Cc1ccc(/C=C/C(=O)c2ccc(Cl)cc2)cc1 | Staphylococcus aureus | mm | 0 |
| O=C(/C=C/c1cccc(O)c1)c1ccc(Cl)cc1 | Staphylococcus aureus | mm | 25 |
| O=C(/C=C/c1ccc(O)cc1)c1ccc(Cl)cc1 | Staphylococcus aureus | mm | 31 |
| COc1ccc(/C=C/C(=O)c2ccccc2)cc1O | Staphylococcus aureus | mm | 0 |
| O=C(/C=C/c1ccccc1)c1ccccc1 [CHALCONE] | Staphylococcus aureus | mm | 29 |
| COc1cc(C(=O)/C=C/c2cccc(O)c2)cc(OC)c1OC | Staphylococcus aureus | mm | 0 |
| COc1cc(/C=C/C(=O)c2ccc(Cl)cc2)ccc1O | Staphylococcus aureus | mm | 21 |
| COc1cc(C(=O)/C=C/c2ccc(NC(C)=O)cc2)cc(OC)c1OC | Staphylococcus aureus | mm | 0 |
| COc1cc(C(=O)/C=C/c2ccc(O)cc2)cc(OC)c1OC | Staphylococcus aureus | mm | 0 |
| O=C(/C=C/c1ccc([N+](=O)[O-])cc1)c1ccc(Cl)cc1 | Staphylococcus aureus | mm | 17 |
| COc1cc(C(=O)/C=C/c2ccc([N+](=O)[O-])cc2)cc(OC)c1OC | Staphylococcus aureus | mm | 0 |
| COc1cc(C(=O)/C=C/c2ccccc2O)cc(OC)c1OC | Staphylococcus aureus | mm | 0 |
| COc1cc(C(=O)/C=C/c2ccc(C#N)cc2)cc(OC)c1OC | Staphylococcus aureus | mm | 0 |
| O=C(/C=C/c1ccccc1)c1ccc(Cl)cc1 | Staphylococcus aureus | mm | 0 |
| COc1cc(/C=C/C(=O)c2ccc(Cl)cc2)cc(OC)c1O | Staphylococcus aureus | mm | 19 |
| COc1cc(/C=C/C(=O)c2cc(OC)c(OC)c(OC)c2)ccc1O | Staphylococcus aureus | mm | 0 |
| O=C(/C=C/c1ccc(Cl)cc1)c1ccccc1 [4-CHLORO CHALCONE] | Staphylococcus aureus | mm | 0 |
| COc1ccc(/C=C/C(=O)c2ccc(Cl)cc2)cc1 | Staphylococcus aureus | mm | 0 |
| O=C(/C=C/C=C/c1ccccc1)/C=C/C=C/c1ccccc1 | Staphylococcus aureus | mm | 0 |
| O=C(/C=C/c1ccc(O)cc1)c1ccccc1 [4-HYDROXYCHALCONE] | Staphylococcus aureus | mm | 19 |
| COc1cc(C(=O)/C=C/c2ccc(C)cc2)cc(OC)c1OC | Staphylococcus aureus | mm | 0 |
